System: Calu-3
test.name: cell viability relative to DMSO; higher = less toxic
assay.setup: 72 h; 10000 nM
value.type: cell viability (%)
Give bare numbers, in %.

The examples below pair each entry with its known result.
NC(=O)OCC(COC(N)=O)c1ccccc1 [felbamate]	98.1
C[C@]12CC[C@@H]3c4ccc(OC(=O)N(CCCl)CCCl)cc4CC[C@H]3[C@@H]1CC[C@@H]2OP(=O)(O)O [estramustine-phosphate]	116
O=C(CCCl)NCCc1ccccc1 [fenaclon]	88.3
CCCCc1ccc(O)cc1O [rucinol]	83.8
CC[C@@H](CO)NC(=O)[C@@H]1C=C2c3cccc4c3c(cn4C)C[C@H]2N(C)C1 [methysergide]	102

Record cell viability per entry; entries follow.
1. CN(Cc1ccccc1)C(=O)[C@H](Cc1ccc2ccccc2c1)NC(=O)[C@@H]1C[C@@H](O)CN1C(=O)c1cn(C)c2ccccc12 [FK-888]
2. COCCc1ccc(OCC(O)CNC(C)C)cc1 (configuration not stated) [metoprolol]
3. CCOc1ccc(-n2c([C@@H](C)N(Cc3cccnc3)C(=O)Cc3ccc(OC(F)(F)F)cc3)nc3ncccc3c2=O)cc1 (racemic) [AMG-487-(+/-)]
4. CC(=O)O[C@H]1C[C@@H]2CC[C@@H]3[C@H](CC[C@@]4(C)[C@H]3C[C@H]([N+]3(C)CCCCC3)[C@@H]4OC(C)=O)[C@@]2(C)C[C@@H]1[N+]1(C)CCCCC1 [pancuronium]
5. O=C(Nc1ccc(C(O)(C(F)(F)F)C(F)(F)F)cc1)c1ccc(C(F)(F)F)cc1 [SR-1078]
6. CC(C)[C@@H](CS(=O)(=O)C(C)C)N1C(=O)[C@@](C)(CC(=O)O)C[C@H](c2cccc(Cl)c2)[C@H]1c1ccc(Cl)cc1 [AMG-232]
7. O=c1ncn2nc(Sc3ccc(F)cc3F)ccc2c1-c1c(Cl)cccc1Cl [VX-745]

A:
1: 86.7; 2: 98.7; 3: 98.5; 4: 99.5; 5: 48.6; 6: 93.8; 7: 95
